assay: Antioxidant activity assessed as copper ion radical scavenging activity at 2 uM; format: functional
The source made the active and inactive calls. The calls are words filed in the database; no cut-off is given here.
One label from this list, please: 1 = active, -1 = inactive

As a guide, the following entries are already answered.
Inquiry: GET /call?item= "C[C@H](/C=C/[C@]1(O)C(C)(C)C[C@@H](O)C[C@]1(C)O)O[C@H]1O[C@@H](CO)[C@H](O)[C@@H](O)[C@@H]1O" returns the recorded outcome of this test.
Reply text: -1

Inquiry: Short answer needed: outcome of this test for "Oc1cc(O)c2c(c1)O[C@H](c1ccc(O)c(O)c1)[C@@H](O)C2" ?
Reply text: 1

Inquiry: Could you check what this test reported for "O=c1cc(-c2ccc(O)cc2)oc2cc(O)c([C@@H]3O[C@H](CO)[C@@H](O)[C@H](O)[C@H]3O)c(O)c12" ?
Reply text: -1

New cases:
Inquiry: Identify the outcome logged in this assay for the molecule shown: "CC1=CC(=O)CC(C)(C)[C@H]1/C=C/[C@@H](C)O[C@@H]1O[C@H](CO[C@@H]2O[C@@H](CO)[C@H](O)[C@H]2O)[C@@H](O)[C@H](O)[C@H]1O"
Reply text: -1

###

assay: Antioxidant activity assessed as copper ion radical scavenging activity at 2 uM; type: functional
Active and inactive are the calls of the source. The rule behind the calls is not given here.
Pick one: active, inactive

Below, 3 compounds whose answers are already recorded.
Inquiry: Name the outcome recorded for "CCCCCCCCCCCCCCCCCC(=O)OC[C@H]1O[C@@H](O[C@H]2CC[C@@]3(C)C(=CC[C@H]4[C@@H]5CC[C@H]([C@H](C)CC[C@@H](CC)C(C)C)[C@@]5(C)CC[C@@H]43)C2)[C@H](O)[C@@H](O)[C@@H]1O" in the assay.
Reply text: inactive

Inquiry: Lab log entry: "O=c1cc(-c2ccc(O[C@@H]3O[C@H](CO)[C@@H](O)[C@H](O)[C@H]3O)cc2)oc2cc(O)c([C@@H]3O[C@H](CO)[C@@H](O)[C@H](O)[C@H]3O)c(O)c12" — outcome as called in the assay?
Reply text: inactive

Inquiry: For "O=c1cc(-c2ccc(O)c(O)c2)oc2cc(O)c([C@@H]3O[C@H](CO)[C@@H](O)[C@H](O)[C@H]3O)c(O)c12" , what call appears in the results of this test?
Reply text: active

Others:
Inquiry: Status in this test for "Oc1cc(O)c2c(c1)O[C@H](c1ccc(O)c(O)c1)[C@H](O)C2" ?
Reply text: active

Inquiry: # fetch the recorded call for "O=c1cc(-c2ccc(O)cc2)oc2c([C@@H]3O[C@H](CO)[C@@H](O)[C@H](O)[C@H]3O[C@H]3OC[C@@](O)(CO)[C@@H]3O)c(O)cc(O)c12" here
Reply text: inactive

Inquiry: What did this assay record as the result for "C[C@H](O)/C=C/[C@@]1(O)C(C)(C)C[C@H](O)C[C@@]1(C)O" ?
Reply text: inactive

Origin of measurements: ChEMBL document CHEMBL1641480
